system: KB; assay: Cytotoxicity against human KB cells at 3.7 ug/ml after 48 hrs; type: functional, cell-based
Calls of active or inactive are those of the source. The calls are words filed in the database; no cut-off is given here.
Outcome codes: active, inactive

> print(dat)
                                   molecule     label
1  C=C1CC[C@@H]2CC[C@@H]3C(=O)N(CCc4ccc(O)cc4)C(=C3C2(C)C)C/C(C)=C/[C@@H](O)C1    active
2  C=C1CC[C@@H]2CCC3=C([C@@H](C/C(C)=C/[C@@H](O)C1)N(CCc1c[nH]c4ccccc14)C3=O)C2(C)C  inactive
3  C=C1CC[C@@H]2CCC3=C(C2(C)C)[C@@](O)(C/C(C)=C/[C@@H](O)C1)N(CC)C3=O  inactive
4  C=C1CC[C@@H]2CCC3=C(C2(C)C)[C@@](O)(C/C(C)=C/[C@@H](O)C1)NC3=O  inactive
5  C=C1CC[C@@H]2CCC3=C([C@@H](C/C(C)=C/[C@@H](OC(C)=O)C1)NC3=O)C2(C)C  inactive
6  C=C1CC[C@@H]2CCC3=C([C@@H](C/C(C)=C/[C@@H](O)C1)N(C)C3=O)C2(C)C  inactive
7  C=C1CC[C@@H]2CCC3=C([C@@H](C/C(C)=C/[C@@H](O)C1)NC3=O)C2(C)C  inactive
8  C=C1CC[C@@H]2CCC3C(=O)N/C(=C/C(C)CC(=O)C1)C3(O)C2(C)C (stereo partly drawn)  inactive

Attribution: ChEMBL document CHEMBL1141447
